Assay: in vivo
Design: species or system mice
Conditions: male, NOD.Cg-Rag1tm1Mom Il2rgtm1Wjl/SzJ (NRG), mouse, iv, total radioactivity, Biodistribution: Lungs
Where a SMILES comes first, the peptide text is derived from it. Bridges are numbered along the chain shown (N, C = ends). [ ]: non-standard residue; d: D form. The star is where a group is joined. X3 = O=C(O)CN1CCN(CC(=O)O)CCN(CC(=O)N[C@@H](CS(=O)(=O)O)C(=O)N[C@@H](CCCCNC(=O)CCCc2ccc(Br)cc2)C(=O)*)CCN(CC(=O)O)CC1; X1 = O=C(O)CN1CCN(CC(=O)O)CCN(CC(=O)N[C@@H](CS(=O)(=O)O)C(=O)N[C@@H](CCCCNC(=O)CCCc2ccc(I)cc2)C(=O)*)CCN(CC(=O)O)CC1; 2Nal = N[C@@H](Cc1ccc2ccccc2c1)C(=O)O; Lys(iPr) = CC(C)NCCCC[C@H](N)C(=O)O
Reported tissue uptake at 24 h values follow for various molecules
measured parameter: tissue uptake at 24 h (%ID/g)

- CC(C)NCCCC[C@H](NC(=O)[C@H]1CCC(=O)N[C@@H](CCCCNC(=O)[C@H](CCCCNC(=O)CCCc2ccc(I)cc2)NC(=O)[C@H](CS(=O)(=O)O)NC(=O)CN2CCN(CC(=O)O)CCN(CC(=O)O)CCN(CC(=O)O)CC2)C(=O)N[C@@H](Cc2ccc(O)cc2)C(=O)N[C@@H](CCCCNC(C)C)C(=O)N[C@H](CCCNC(=N)N)C(=O)N[C@@H](Cc2ccc3ccccc3c2)C(=O)N[C@H](C)C(=O)N1)C(N)=O [[^177Lu]Lu-BL34L11, metal not drawn] (K(X1)Y[Lys(iPr)][dR][2Nal][dA][dE][Lys(iPr)]-NH2; lactam N-7): 4.88
- CC(C)NCCCC[C@H](NC(=O)[C@H]1CCC(=O)N[C@@H](CCCCNC(=O)[C@H](CCCCNC(=O)CCCc2ccc(Br)cc2)NC(=O)[C@H](CS(=O)(=O)O)NC(=O)CN2CCN(CC(=O)O)CCN(CC(=O)O)CCN(CC(=O)O)CC2)C(=O)N[C@@H](Cc2ccc(O)cc2)C(=O)N[C@@H](CCCCNC(C)C)C(=O)N[C@H](CCCNC(=N)N)C(=O)N[C@@H](Cc2ccc3ccccc3c2)C(=O)N[C@H](C)C(=O)N1)C(N)=O [[^177Lu]Lu-BL34L20, metal not drawn] (K(X3)Y[Lys(iPr)][dR][2Nal][dA][dE][Lys(iPr)]-NH2; lactam N-7): 1.9

###

Assay: in vivo
Set-up: species or system mice
Settings: male, NOD.Cg-Rag1tm1Mom Il2rgtm1Wjl/SzJ (NRG), mouse, iv, total radioactivity, Biodistribution: Blood
Where a SMILES comes first, the peptide text is derived from it. Bridges are numbered along the chain shown (N, C = ends). [ ]: non-standard residue; d: D form. The star is where a group is joined. X4 = O=C(O)CN1CCN(CC(=O)O)CCN(CC(=O)N[C@@H](CS(=O)(=O)O)C(=O)NCCCC[C@H](NC(=O)CNC(=O)CCCc2ccc(Cl)cc2)C(=O)*)CCN(CC(=O)O)CC1; 2Nal = N[C@@H](Cc1ccc2ccccc2c1)C(=O)O; Lys(iPr) = CC(C)NCCCC[C@H](N)C(=O)O
measured parameter: tissue uptake at 3 h (%ID/g)

* CC(C)NCCCC[C@H](NC(=O)[C@H]1CCC(=O)N[C@@H](CCCCNC(=O)[C@H](CCCCNC(=O)[C@H](CS(=O)(=O)O)NC(=O)CN2CCN(CC(=O)O)CCN(CC(=O)O)CCN(CC(=O)O)CC2)NC(=O)CNC(=O)CCCc2ccc(Cl)cc2)C(=O)N[C@@H](Cc2ccc(O)cc2)C(=O)N[C@@H](CCCCNC(C)C)C(=O)N[C@H](CCCNC(=N)N)C(=O)N[C@@H](Cc2ccc3ccccc3c2)C(=O)N[C@H](C)C(=O)N1)C(N)=O [[68Ga]Ga-BL34T1, metal not drawn] (K(X4)Y[Lys(iPr)][dR][2Nal][dA][dE][Lys(iPr)]-NH2; lactam N-7) | 7.55

###

Reported tissue uptake at 24 h values follow for various compounds
Experiment: in vivo
Design: species or system mice
Conditions: male, NOD.Cg-Rag1tm1Mom Il2rgtm1Wjl/SzJ (NRG), mouse, iv, total radioactivity, Biodistribution: Adrenals
Where a SMILES comes first, the peptide text is derived from it. Bridges are numbered along the chain shown (N, C = ends). [ ]: non-standard residue; d: D form. The star is where a group is joined. X3 = O=C(O)CN1CCN(CC(=O)O)CCN(CC(=O)N[C@@H](CS(=O)(=O)O)C(=O)N[C@@H](CCCCNC(=O)CCCc2ccc(Br)cc2)C(=O)*)CCN(CC(=O)O)CC1; X1 = O=C(O)CN1CCN(CC(=O)O)CCN(CC(=O)N[C@@H](CS(=O)(=O)O)C(=O)N[C@@H](CCCCNC(=O)CCCc2ccc(I)cc2)C(=O)*)CCN(CC(=O)O)CC1; 2Nal = N[C@@H](Cc1ccc2ccccc2c1)C(=O)O; Lys(iPr) = CC(C)NCCCC[C@H](N)C(=O)O
measured parameter: tissue uptake at 24 h (%ID/g)

- CC(C)NCCCC[C@H](NC(=O)[C@H]1CCC(=O)N[C@@H](CCCCNC(=O)[C@H](CCCCNC(=O)CCCc2ccc(I)cc2)NC(=O)[C@H](CS(=O)(=O)O)NC(=O)CN2CCN(CC(=O)O)CCN(CC(=O)O)CCN(CC(=O)O)CC2)C(=O)N[C@@H](Cc2ccc(O)cc2)C(=O)N[C@@H](CCCCNC(C)C)C(=O)N[C@H](CCCNC(=N)N)C(=O)N[C@@H](Cc2ccc3ccccc3c2)C(=O)N[C@H](C)C(=O)N1)C(N)=O [[^177Lu]Lu-BL34L11, metal not drawn] (K(X1)Y[Lys(iPr)][dR][2Nal][dA][dE][Lys(iPr)]-NH2; lactam N-7): 2.44
- CC(C)NCCCC[C@H](NC(=O)[C@H]1CCC(=O)N[C@@H](CCCCNC(=O)[C@H](CCCCNC(=O)CCCc2ccc(Br)cc2)NC(=O)[C@H](CS(=O)(=O)O)NC(=O)CN2CCN(CC(=O)O)CCN(CC(=O)O)CCN(CC(=O)O)CC2)C(=O)N[C@@H](Cc2ccc(O)cc2)C(=O)N[C@@H](CCCCNC(C)C)C(=O)N[C@H](CCCNC(=N)N)C(=O)N[C@@H](Cc2ccc3ccccc3c2)C(=O)N[C@H](C)C(=O)N1)C(N)=O [[^177Lu]Lu-BL34L20, metal not drawn] (K(X3)Y[Lys(iPr)][dR][2Nal][dA][dE][Lys(iPr)]-NH2; lactam N-7): 1.1

###

Assay: in vivo
Design: species or system mice
Conditions: male, NOD.Cg-Rag1tm1Mom Il2rgtm1Wjl/SzJ (NRG), mouse, iv, total radioactivity, Biodistribution: Kidneys
Where a SMILES comes first, the peptide text is derived from it. Bridges are numbered along the chain shown (N, C = ends). Side-chain parts run from the residue outwards. [ ]: non-standard residue; d: D form. The star is where a group is joined. X6 = COc1ccc(CCCC(=O)NCCCC[C@H](NC(=O)[C@H](CS(=O)(=O)O)NC(=O)CN2CCN(CC(=O)O)CCN(CC(=O)O)CCN(CC(=O)O)CC2)C(=O)*)cc1; DOTA = O=C(O)CN1CCN(CC(=O)O)CCN(CC(=O)*)CCN(CC(=O)O)CC1; NMeLys(iPr) = CN[C@@H](CCCCNC(C)C)C(=O)O; 2Nal = N[C@@H](Cc1ccc2ccccc2c1)C(=O)O; Lys(iPr) = CC(C)NCCCC[C@H](N)C(=O)O; Cya = N[C@@H](CS(=O)(=O)O)C(=O)O
measured parameter: tissue uptake at 1 h (%ID/g)

- CC(C)NCCCC[C@H](NC(=O)[C@H]1CCC(=O)N[C@@H](CCCCNC(=O)[C@H](CS(=O)(=O)O)NC(=O)CN2CCN(CC(=O)O)CCN(CC(=O)O)CCN(CC(=O)O)CC2)C(=O)N[C@@H](Cc2ccc(O)cc2)C(=O)N(C)[C@@H](CCCCNC(C)C)C(=O)N[C@H](CCCNC(=N)N)C(=O)N[C@@H](Cc2ccc3ccccc3c2)C(=O)N[C@H](C)C(=O)N1)C(N)=O [[^68Ga]Ga-BL34N1, metal not drawn] (K([Cya-DOTA])Y[NMeLys(iPr)][dR][2Nal][dA][dE][Lys(iPr)]-NH2; lactam N-7): 2.7
- COc1ccc(CCCC(=O)NCCCC[C@H](NC(=O)[C@H](CS(=O)(=O)O)NC(=O)CN2CCN(CC(=O)O)CCN(CC(=O)O)CCN(CC(=O)O)CC2)C(=O)NCCCC[C@@H]2NC(=O)CC[C@H](C(=O)N[C@@H](CCCCNC(C)C)C(N)=O)NC(=O)[C@@H](C)NC(=O)[C@H](Cc3ccc4ccccc4c3)NC(=O)[C@@H](CCCNC(=N)N)NC(=O)[C@H](CCCCNC(C)C)NC(=O)[C@H](Cc3ccc(O)cc3)NC2=O)cc1 [[^68Ga]Ga-BL34L7, metal not drawn] (K(X6)Y[Lys(iPr)][dR][2Nal][dA][dE][Lys(iPr)]-NH2; lactam N-7): 2.45
